test system: HFF cells; assay: Cytotoxicity in stationary HFF cells, microscopic inspection; type: cell-based, human
The following compounds are shown together with reported IC50 values.
QUANTITY MEASURED: IC50

{"COMPOUND": "Nc1nc2c(ncn2C=C2CC2CO)c(=O)[nH]1 (stereo not drawn) [1 (B = guanine), Example 8]", "MEASUREMENT TARGET": "HFF cells", "QUANTITY MEASURED": "IC50", "RESULT": "> 100 µM"}
{"COMPOUND": "Nc1nc(Cl)c2ncn(C=C3CC3CO)c2n1 (stereo not drawn) [S-1 (B = 2-amino-6-chloropurine), Example 22]", "MEASUREMENT TARGET": "HFF cells", "QUANTITY MEASURED": "IC50", "RESULT": "> 100 µM"}
{"COMPOUND": "Nc1ncnc2c1ncn2/C=C1/C[C@@H]1CO [S-1 (B = adenine), Example 24, (S)-(+)-Synadenol]", "MEASUREMENT TARGET": "HFF cells", "QUANTITY MEASURED": "IC50", "RESULT": "100 µM"}
{"COMPOUND": "[N-]=[N+]=Nc1nc(N)nc2c1ncn2C=C1CC1CO (stereo not drawn)", "MEASUREMENT TARGET": "HFF cells", "QUANTITY MEASURED": "IC50", "RESULT": "> 100 µM"}
{"COMPOUND": "Nc1nc(NC2CC2)c2ncn(C=C3CC3CO)c2n1 (stereo not drawn)", "MEASUREMENT TARGET": "HFF cells", "QUANTITY MEASURED": "IC50", "RESULT": "> 100 µM"}
{"COMPOUND": "Nc1nc(N)c2ncn(C=C3CC3CO)c2n1 (stereo not drawn) [S-1 (B = 2,6-diaminopurine), Example 22]", "MEASUREMENT TARGET": "HFF cells", "QUANTITY MEASURED": "IC50", "RESULT": "21 µM"}
{"COMPOUND": "Nc1nc(N)c2ncn(C=C3CC3CO)c2n1 (stereo not drawn) [R-1 (B = 2,6-diaminopurine), Example 22]", "MEASUREMENT TARGET": "HFF cells", "QUANTITY MEASURED": "IC50", "RESULT": "> 100 µM"}
{"COMPOUND": "Nc1ccn(C=C2CC2CO)c(=O)n1 (stereo not drawn)", "MEASUREMENT TARGET": "HFF cells", "QUANTITY MEASURED": "IC50", "RESULT": "> 100 µM"}
{"COMPOUND": "Nc1nc2c(ncn2C=C2CC2CO)c(=O)[nH]1 (stereo not drawn) [S-1 (B = guanine), Example 22]", "MEASUREMENT TARGET": "HFF cells", "QUANTITY MEASURED": "IC50", "RESULT": "> 100 µM"}

----------
tested on: HCMV; experiment: HCMV plaque reduction assay in HFF cells; type: cell-based, Human CMV (HCMV); conditions: Example 26; HFF cells; plaque reduction; listed as S-1 (B = 2-amino-6-methoxy-purine), Example 22

{"COMPOUND": "COc1nc(N)nc2c1ncn2C=C1CC1CO (stereo not shown)", "RESULT UNITS": "µM", "IC50": 2.5}

----------
tested on: HCMV; test: HCMV plaque reduction assay in HFF cells; type: cell-based, Human CMV (HCMV); details: Example 26; HFF cells; plaque reduction
pIC50: −log10 of the molar value.
QUANTITY MEASURED: pIC50

{"COMPOUND": "Nc1nc(NC2CC2)c2ncn(C=C3CC3CO)c2n1 (centres unmarked) [S-1 (B = 2-aminopurine-6-cyclo-propylaminopurine), Example 2]", "MEASUREMENT TARGET": "HCMV", "COMPARISON SYMBOL": "=", "RESULT NUMBER": 5.74}
{"COMPOUND": "[N-]=[N+]=Nc1nc(N)nc2c1ncn2C=C1CC1CO (centres unmarked)", "MEASUREMENT TARGET": "HCMV", "COMPARISON SYMBOL": "=", "RESULT NUMBER": 4.39}
{"COMPOUND": "Nc1nc(N)c2ncn(C=C3CC3CO)c2n1 (centres unmarked) [R-1 (B = 2,6-diaminopurine), Example 22]", "MEASUREMENT TARGET": "HCMV", "COMPARISON SYMBOL": "<", "RESULT NUMBER": 4.00}
{"COMPOUND": "Nc1nc(NC2CC2)c2ncn(C=C3CC3CO)c2n1 (centres unmarked) [R-1 (B = 2-aminopurine-6-cyclo-propylaminopurine), Example 2]", "MEASUREMENT TARGET": "HCMV", "COMPARISON SYMBOL": "<", "RESULT NUMBER": 4.00}
{"COMPOUND": "COc1nc(N)nc2c1ncn2C=C1CC1CO (centres unmarked)", "MEASUREMENT TARGET": "HCMV", "COMPARISON SYMBOL": "=", "RESULT NUMBER": 5.51}
{"COMPOUND": "Nc1nc2c(ncn2C=C2CC2CO)c(=O)[nH]1 (centres unmarked) [R-1 (B = guanine), Example 22]", "MEASUREMENT TARGET": "HCMV", "COMPARISON SYMBOL": "<", "RESULT NUMBER": 4.00}
{"COMPOUND": "Nc1nc(N)c2ncn(C=C3CC3CO)c2n1 (centres unmarked) [S-1 (B = 2,6-diaminopurine), Example 22]", "MEASUREMENT TARGET": "HCMV", "COMPARISON SYMBOL": "=", "RESULT NUMBER": 4.68}
{"COMPOUND": "Nc1nc2c(ncn2C=C2CC2CO)c(=O)[nH]1 (centres unmarked) [S-1 (B = guanine), Example 22]", "MEASUREMENT TARGET": "HCMV", "COMPARISON SYMBOL": "=", "RESULT NUMBER": 5.60}

----------
system: HFF cells; assay: Cytotoxicity in stationary HFF cells, microscopic inspection; type: cell-based, human
QUANTITY MEASURED: IC50

{"COMPOUND": "COc1nc(N)nc2c1ncn2C=C1CC1CO (centres unmarked)", "QUANTITY MEASURED": "IC50", "RESULT": "> 100 µM"}
{"COMPOUND": "Nc1nc(N)c2ncn(C=C3CC3CO)c2n1 (centres unmarked) [1 (B = 2,6-diaminopurine), Example 9]", "QUANTITY MEASURED": "IC50", "RESULT": "> 100 µM"}
{"COMPOUND": "Nc1nc2c(ncn2C=C2CC2CO)c(=O)[nH]1 (centres unmarked) [R-1 (B = guanine), Example 22]", "QUANTITY MEASURED": "IC50", "RESULT": "> 100 µM"}
{"COMPOUND": "Nc1nc(Cl)c2ncn(C=C3CC3CO)c2n1 (centres unmarked)", "QUANTITY MEASURED": "IC50", "RESULT": "> 100 µM"}
{"COMPOUND": "Nc1ncnc2c1ncn2C=C1CC1CO (centres unmarked)", "QUANTITY MEASURED": "IC50", "RESULT": "> 100 µM"}

----------
tested on: KB cells; test: Cytotoxicity in KB cells, growth over two population doublings; assay type: cell-based
pIC50: −log10 of the molar value.

{"MOLECULE": "Nc1ncnc2c1ncn2C=C1CC1CO (stereo not shown)", "COMPARISON SYMBOL": "=", "pIC50": 4.09}
{"MOLECULE": "Nc1nc(Cl)c2ncn(C=C3CC3CO)c2n1 (stereo not shown) [S-1 (B = 2-amino-6-chloropurine), Example 22]", "COMPARISON SYMBOL": "<", "pIC50": 4.00}
{"MOLECULE": "Nc1nc2c(ncn2C=C2CC2CO)c(=O)[nH]1 (stereo not shown) [R-1 (B = guanine), Example 22]", "COMPARISON SYMBOL": "<", "pIC50": 4.00}
{"MOLECULE": "Nc1ncnc2c1ncn2/C=C1/C[C@@H]1CO [S-1 (B = adenine), Example 24, (S)-(+)-Synadenol]", "COMPARISON SYMBOL": "=", "pIC50": 4.10}

----------
Test system: HCMV
Experiment: HCMV plaque reduction assay in HFF cells
Type: cell-based, Human CMV (HCMV)
Conditions: Example 26; HFF cells; plaque reduction
Procedure: Cells and viruses. The routine growth and passage of KB cells was performed in monolayer cultures using minimal essential medium (MEM) with either Hanks salts [MEM(H)] or Earle salts [MEM(E)] supplemented with 10% calf serum. […] Virological procedures. […] Virus titers were determined using monolayer cultures of HFF cells for HCMV and monolayer cultures of BSC-1 cells for HSV-1 as described earlier. […] Data Analysis. […] Fifty-percent inhibitory (IC50) concentrations were calculated from the regression lines. […]
pIC50: −log10 of the molar value.
The following compounds are shown together with reported pIC50 values.

{"COMPOUND": "Nc1nc(Cl)c2ncn(C=C3CC3CO)c2n1 (stereo not shown) [S-1 (B = 2-amino-6-chloropurine), Example 22]", "MEASUREMENT TARGET": "HCMV", "pIC50": 5.74}
{"COMPOUND": "Nc1nc(Cl)c2ncn(C=C3CC3CO)c2n1 (stereo not shown) [R-1 (B = 2-amino-6-chloropurine), Example 22]", "MEASUREMENT TARGET": "HCMV", "pIC50": 4.52}
{"COMPOUND": "Nc1ncnc2c1ncn2/C=C1/C[C@H]1CO [R-1 (B = adenine), Example 23, (R)-(−)-Synadenol]", "MEASUREMENT TARGET": "HCMV", "pIC50": 5.54}
{"COMPOUND": "Nc1ncnc2c1ncn2/C=C1/C[C@@H]1CO [S-1 (B = adenine), Example 24, (S)-(+)-Synadenol]", "MEASUREMENT TARGET": "HCMV", "pIC50": 5.62}

Source: patent US6958345B2
